- procedure-details: ATG_NRF2_ARE_CIS: Attagene CIS-FACTORIAL HepG2 Assay for human Nuclear Factor Erythroid 2 Related Factor 2 (NFR2) response to Antioxidant Response Elements (ARE) (AID 2282992)
- details: HepG2 Attagene ARE/NRF2 reporter, transcription factor activity; actives raise or lower the signal
Calls of active or inactive are those of the source. Rule for the calls: active = hit-call score of the fitted dose curve at least 0.9, where 1 is the maximum; inactive = score below 0.9.
Use one of these outcomes when replying: active, inactive

Challenge: What call does the record list for CC(Cc1ccc(C(C)(C)C)cc1)CN1C[C@@H](C)O[C@@H](C)C1 (stereo partly drawn) ?
Response given: active

Challenge: What call does the record list for `CCCCCc1cc(O)cc(O)c1` ?
Response given: active

Challenge: What call does the record list for `CCOC(=O)NC(=S)Nc1ccccc1NC(=S)NC(=O)OCC` ?
Response given: active

Challenge: What call does the record list for `S=c1[nH]c2ccccc2[nH]1` ?
Response given: inactive

Challenge: What call does the record list for `O=C(CCl)c1ccccc1` ?
Response given: active

Challenge: What call does the record list for `CCOP(=O)(OCC)OCC` ?
Response given: inactive

Challenge: What call does the record list for `O=S(=O)(O)O` ?
Response given: inactive

Challenge: What call does the record list for `C[N+](=O)[O-]` ?
Response given: inactive

====

- procedure-details: ATG_TGFb_CIS: Attagene CIS-FACTORIAL HepG2 Assay for human Transforming Growth Factor (TGF) (AID 2282967)
- details: HepG2 Attagene CIS TGFb reporter, mRNA transcription; actives raise or lower the signal
The source made the active and inactive calls. The calls were made as follows: active = hit-call score of the fitted dose curve at least 0.9, where 1 is the maximum; inactive = score below 0.9.
Use one of these outcomes when replying: active, inactive

compound=C=CC(=O)OCCCCOC(=O)C=C group=inactive
compound=[N-]=[N+]=CC(=O)OC[C@H](N)C(=O)O group=inactive
compound=COc1cc(OC)c(OC)cc1C=O group=inactive
compound=O=[N+]([O-])c1cc([N+](=O)[O-])c2ccccc2c1 group=inactive
compound=c1ccc(Nc2ccc3ccccc3c2)cc1 group=inactive
compound=c1ccc2c(c1)CCCC2 group=inactive
compound="CC(C)(C)C(O)C(Oc1ccc(-c2ccccc2)cc1)n1cncn1 (stereo unspecified)" group=active
compound=CCCCNP(N)(N)=S group=inactive
compound=CC(C)C#N group=inactive
compound="CCC(C)c1cc([N+](=O)[O-])cc([N+](=O)[O-])c1OC(=O)C=C(C)C (stereo unspecified)" group=inactive

Challenge: What call does the record list for `O=C(CCN1CC1)OCC(CO)(COC(=O)CCN1CC1)COC(=O)CCN1CC1` ?
Response given: inactive

====

- procedure-details: ATG_CRE_CIS: Attagene CIS-FACTORIAL HepG2 Assay for human cAMP Responsive Element (CRE) binding protein 3 (AID 2282926)
- details: HepG2 CRE cis-reporter, Attagene multiplexed mRNA; actives raise or lower the signal
The source made the active and inactive calls. How the source made its calls: active means hit-call score of the fitted dose curve at least 0.9, where 1 is the maximum; inactive means score below 0.9.
Use one of these outcomes when replying: active, inactive

compound=CCc1cccc(C)c1N(C(=O)CCl)[C@@H](C)COC group=inactive
compound=Nc1c(Cl)c(Cl)c(Cl)c(Cl)c1Cl group=inactive
compound=O=[N+]([O-])O.O=[N+]([O-])O.[Cd] group=active
compound=O=S(=O)(O)O group=inactive
compound=CC(C)COP(=O)(OCC(C)C)OCC(C)C group=inactive
compound=CN(N=O)c1ccccc1 group=inactive

Challenge: What call does the record list for `CCCCOP(=O)(O)OCCCC` ?
Response given: inactive

Challenge: What call does the record list for `O=C(O)CCCc1ccc(N(CCCl)CCCl)cc1` ?
Response given: inactive

Challenge: What call does the record list for `CC(C)(C)C(=O)CCl` ?
Response given: inactive

Challenge: What call does the record list for `C=CC(=O)OCCCCOC(=O)C=C` ?
Response given: inactive

Challenge: What call does the record list for O=C1Nc2ccc(Cl)cc2C(c2ccccc2)=NC1O (stereo not given) ?
Response given: inactive

====

- procedure-details: ATG_GLI_CIS: Attagene CIS-FACTORIAL HepG2 Assay for human Zinc Finger Protein GLI1 (AID 2282945)
- details: HepG2, Attagene cis-factorial reporter mRNA, GLI element; actives raise or lower the signal
The source made the active and inactive calls. Rule for the calls: active = hit-call score of the fitted dose curve at least 0.9, where 1 is the maximum; inactive = score below 0.9.
Use one of these outcomes when replying: active, inactive

Check out these entries, answers already filled in.
compound="Cc1ccc(OP(=O)(Oc2ccc(C)cc2)Oc2ccc(C)cc2)cc1 (tested in a mixture with another compound)" group=inactive
compound="CCOC(=O)C1OC1(C)c1ccccc1 (stereo not drawn)" group=inactive
compound=CC(C)(Cl)Cl group=inactive

Challenge: What call does the record list for `N#CC(c1ccccc1)c1ccccc1` ?
Response given: inactive

====

- procedure-details: TOX21_p53_BLA_p3_viability: Viability Assessment in the Tox21 HCT-116 p53 Agonism Beta-lactamase Assay, Phase 3 (AID 2283593);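 note: cells exposed to compound for 16 h before reading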
- Source text: TOX21_p53_BLA_p3 is a cell-based, single-readout assay that uses HCT116, a human intestinal cell line, […] in a 1536-well plate.TOX21_p53_BLA_p3_viability is an assay readout measuring cellular ATP content and detected with CellTiter-Glo Luciferase-coupled ATP quantitation.TOX21_p53_BLA_p3_viability used a type of viability reporter where loss-of-signal activity can be used to understand changes in the cell viability. […]
Records with an inconclusive call do not appear. The source made the active and inactive calls. How the source made its calls: active means hit-call score of the fitted dose curve at least 0.9, where 1 is the maximum; inconclusive means response in the unintended direction; inactive means score below 0.9.
Use one of these outcomes when replying: active, inactive

Challenge: What call does the record list for `NC1(c2ccccc2)CCCCC1` ?
Response given: inactive

Challenge: What call does the record list for `O=C(O)C(Cl)(Cl)Br` ?
Response given: inactive

Challenge: What call does the record list for `O=[N+]([O-])C(Br)Br` ?
Response given: inactive

Challenge: What call does the record list for `COCC(=O)N(c1c(C)cccc1C)N1CCOC1=O` ?
Response given: inactive

====

- procedure-details: ATG_SREBP_CIS: Attagene CIS-FACTORIAL HepG2 Assay for human Sterol Regulatory Element Binding (SREBP) (AID 2282962)
- details: HepG2 Attagene cis-factorial SREBP reporter, mRNA; actives raise or lower the signal
Activity calls are given as the source filed them. The calls were made as follows: active = hit-call score of the fitted dose curve at least 0.9, where 1 is the maximum; inactive = score below 0.9.
Use one of these outcomes when replying: yes = active, no = inactive

Check out these entries, answers already filled in.
compound=O=[N+]([O-])C=Cc1ccccc1 group=no
compound=S=c1[nH]c2ccccc2[nH]1 group=no
compound=O=S(=O)(c1ccccc1)c1ccccc1 group=no
compound=CCCCCCCCCCCC#N group=yes

Challenge: What call does the record list for `[CH3][Sn]([CH3])([Cl])[Cl]` ?
Response given: no

Challenge: What call does the record list for `CCCC=NO` ?
Response given: no

Challenge: What call does the record list for `O=P(O)(Oc1ccccc1)Oc1ccccc1` ?
Response given: no

Challenge: What call does the record list for O=C1Nc2ccc(Cl)cc2C(c2ccccc2)=NC1O (stereo unspecified) ?
Response given: no

Challenge: What call does the record list for `CCCCOP(=O)(O)OCCCC` ?
Response given: no

Challenge: What call does the record list for `CC(C)c1ccc(O)cc1` ?
Response given: no

Challenge: What call does the record list for `[Cl][Sb]([Cl])[Cl]` ?
Response given: no

Challenge: What call does the record list for `O=[N+]([O-])c1ccc(Cl)cc1` ?
Response given: no

Challenge: What call does the record list for `Nc1ccc(Cl)c(Cl)c1` ?
Response given: no

Challenge: What call does the record list for `Nc1ccc(-c2ccc(N)c(N)c2)cc1N` ?
Response given: no

Challenge: What call does the record list for `Cc1ccccc1CCl` ?
Response given: no

Challenge: What call does the record list for `CSc1nc(N=[N+]=[N-])nc(NC(C)C)n1` ?
Response given: no

====

- assay-target: Protein deacetylase HDAC6 (Homo sapiens)
- procedure-details: NVS_ENZ_hHDAC6: NovaScreen (NVS) Enzymatic Assay for human Histone Deacetylase 6 (HDAC6) (AID 2283164)
Results filed as inconclusive are left out. Activity calls are given as the source filed them. Rule for the calls: active = hit-call score of the fitted dose curve at least 0.9, where 1 is the maximum; inconclusive = response in the unintended direction; inactive = score below 0.9.
Use one of these outcomes when replying: y (active), n (inactive)

Check out these entries, answers already filled in.
compound=Cc1[nH]cnc1C[C@H]1CCc2c(C)c3ccccc3n2C1=O group=n
compound=Cn1c(=O)cc(Oc2ccc(F)cc2F)c2cnc(NCC(C)(C)O)nc21 group=n
compound=Cc1ncc([C@@H](CCCCCCc2ccc3c(n2)NCCC3)CC(=O)O)cn1 group=y

Challenge: What call does the record list for `O=C1c2ccccc2C(=O)N1CCc1noc(-c2ccc(CN3CCCCCC3)s2)n1` ?
Response given: n

Challenge: What call does the record list for `CC(C)CCCCCCc1ccc(O)cc1` ?
Response given: n

Challenge: What call does the record list for CC(CO)OC(C)CO (stereo unspecified) (tested in a mixture with another compound) ?
Response given: n

Challenge: What call does the record list for `CC[C@H](C)C(=O)O[C@H]1C[C@@H](C)C=C2C=C[C@H](C)[C@H](CC[C@@H]3C[C@@H](O)CC(=O)O3)[C@H]21` ?
Response given: n

Challenge: What call does the record list for `Nc1cccc2c(N)cccc12` ?
Response given: n

Challenge: What call does the record list for `CCCCCCCC/C=C\CCCCCCCC(=O)OC[C@@H](O)[C@H]1OC[C@H](O)[C@H]1O` ?
Response given: n

Challenge: What call does the record list for `CCCCCCC(=O)O` ?
Response given: n

Challenge: What call does the record list for `Cc1occc(=O)c1O` ?
Response given: n

Challenge: What call does the record list for `NC(=O)NO` ?
Response given: n

Challenge: What call does the record list for `C#C[C@]1(O)CC[C@H]2[C@@H]3CCC4=CC(=O)CC[C@@H]4[C@H]3CC[C@@]21C` ?
Response given: n
